Values compiled from ChEMBL document CHEMBL1933063.

# testedTarget: Broad substrate specificity ATP-binding cassette transporter ABCG2 (Homo sapiens)
# Sequence (Q9UNQ0 whole entry): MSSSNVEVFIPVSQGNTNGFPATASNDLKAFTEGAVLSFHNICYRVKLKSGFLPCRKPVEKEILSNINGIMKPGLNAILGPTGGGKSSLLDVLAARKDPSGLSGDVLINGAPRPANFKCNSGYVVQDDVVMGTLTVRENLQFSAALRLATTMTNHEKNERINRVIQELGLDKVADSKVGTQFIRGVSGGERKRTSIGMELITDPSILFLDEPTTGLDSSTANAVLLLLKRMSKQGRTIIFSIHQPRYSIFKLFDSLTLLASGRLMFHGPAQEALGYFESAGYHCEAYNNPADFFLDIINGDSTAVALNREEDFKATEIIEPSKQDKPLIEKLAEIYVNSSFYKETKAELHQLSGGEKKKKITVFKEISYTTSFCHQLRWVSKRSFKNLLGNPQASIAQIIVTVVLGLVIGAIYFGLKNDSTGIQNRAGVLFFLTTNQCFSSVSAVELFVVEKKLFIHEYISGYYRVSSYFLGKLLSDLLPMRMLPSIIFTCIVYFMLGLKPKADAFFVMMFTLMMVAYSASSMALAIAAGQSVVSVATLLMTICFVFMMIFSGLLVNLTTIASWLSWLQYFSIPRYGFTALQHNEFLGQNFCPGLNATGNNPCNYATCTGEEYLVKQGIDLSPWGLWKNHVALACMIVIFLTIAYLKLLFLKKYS
# assayRemarks: Inhibition of human BCRP expressed in MDCK2 cells assessed as Hoechst 33342 accumulation preincubated for 30 mins by fluorimetry
# Format: cell-based, MDCK-II
# conditionDescription: read-out: IC50
endpointName: IC50 (µM)

Study these solved cases before continuing.
smiles	endpointName	experimentalResult
COc1ccc(C(=O)/C=C/c2ccccc2Cl)c(OC)c1	IC50	2.63
COc1ccc(/C=C/C(=O)c2c(O)ccc3ccccc23)cc1OC	IC50	0.72
COc1ccc(/C=C/C(=O)c2ccccc2O)cc1OC	IC50	4.97

(P) COc1ccc(/C=C/C(=O)c2ccc(OC)c(OC)c2)cc1OC
(Q) O=C(/C=C/c1ccc(Cl)cc1)c1ccc(O)cc1O
(R) COc1cc(O)c(C(=O)/C=C/c2ccc(OC)c(OC)c2)c(OC)c1
(S) COc1ccc(/C=C/C(=O)c2ccc(O)cc2O)cc1
(T) COc1ccc(C(=O)/C=C/c2ccccc2)c(O)c1
Arrange by IC50, high to low. Kindly provide the labels arranged according to the requested ordering.
T, S, Q, P, R
(T: 30.9 µM, S: 12 µM, Q: 6.37 µM, P: 3.8 µM, R: 0.53 µM)

----------
# testedTarget: ATP-dependent translocase ABCB1 (Homo sapiens, UniProt P08183)
# Sequence (P08183 whole entry): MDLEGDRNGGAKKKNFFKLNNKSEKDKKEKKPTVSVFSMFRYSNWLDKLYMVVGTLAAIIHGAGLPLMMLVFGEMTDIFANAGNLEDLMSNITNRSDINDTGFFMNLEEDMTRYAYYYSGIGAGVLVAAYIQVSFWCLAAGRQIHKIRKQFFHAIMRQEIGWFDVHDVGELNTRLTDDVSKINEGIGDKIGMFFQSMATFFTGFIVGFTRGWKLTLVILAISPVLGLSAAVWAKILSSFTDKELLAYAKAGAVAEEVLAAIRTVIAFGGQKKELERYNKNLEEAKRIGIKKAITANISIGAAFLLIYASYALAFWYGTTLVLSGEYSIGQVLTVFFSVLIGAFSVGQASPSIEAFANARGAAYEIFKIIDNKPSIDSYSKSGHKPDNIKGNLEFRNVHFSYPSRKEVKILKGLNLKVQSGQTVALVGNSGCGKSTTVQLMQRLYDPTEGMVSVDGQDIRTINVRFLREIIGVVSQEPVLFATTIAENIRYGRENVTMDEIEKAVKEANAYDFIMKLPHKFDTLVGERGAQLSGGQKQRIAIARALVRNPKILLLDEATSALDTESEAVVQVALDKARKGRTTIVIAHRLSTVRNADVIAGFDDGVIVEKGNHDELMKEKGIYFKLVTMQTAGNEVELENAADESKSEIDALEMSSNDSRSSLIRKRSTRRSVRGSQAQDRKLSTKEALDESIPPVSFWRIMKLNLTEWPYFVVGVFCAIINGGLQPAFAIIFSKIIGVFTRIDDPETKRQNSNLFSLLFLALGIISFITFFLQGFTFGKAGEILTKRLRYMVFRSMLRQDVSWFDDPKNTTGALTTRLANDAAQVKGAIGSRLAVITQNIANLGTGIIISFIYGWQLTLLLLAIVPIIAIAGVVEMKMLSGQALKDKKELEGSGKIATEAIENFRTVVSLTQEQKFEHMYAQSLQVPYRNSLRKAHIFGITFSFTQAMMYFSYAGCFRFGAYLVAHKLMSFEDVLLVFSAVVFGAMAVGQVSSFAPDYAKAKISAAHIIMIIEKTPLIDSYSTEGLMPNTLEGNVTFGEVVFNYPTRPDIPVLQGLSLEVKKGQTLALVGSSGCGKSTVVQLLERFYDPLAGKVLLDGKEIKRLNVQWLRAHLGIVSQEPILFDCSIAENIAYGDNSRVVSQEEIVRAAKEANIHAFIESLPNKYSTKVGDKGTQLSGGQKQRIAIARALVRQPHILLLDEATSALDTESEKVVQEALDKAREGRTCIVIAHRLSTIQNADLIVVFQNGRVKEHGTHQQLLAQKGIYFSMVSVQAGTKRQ
# assayRemarks: Inhibition of MDR1 in human A2780adr cells assessed as calcein AM accumulation at 10 uM by fluorimetry
# Format: cell-based
# conditionDescription: a2780 adr
endpointName: inhibition (INH)

Study these solved cases before continuing.
smiles	testedTarget	experimentalResult
COc1cccc(/C=C/C(=O)c2ccc(OC)cc2O)c1	ATP-dependent translocase ABCB1 (Homo sapiens, UniProt P08183)	Active
COc1ccc(C(=O)/C=C/c2ccc(Cl)cc2)cc1OC	ATP-dependent translocase ABCB1 (Homo sapiens, UniProt P08183)	Active
COc1ccc(C(=O)/C=C/c2ccccc2Cl)c(O)c1	ATP-dependent translocase ABCB1 (Homo sapiens, UniProt P08183)	Active
COc1ccc(/C=C/C(=O)c2c(O)ccc3ccccc23)cc1	ATP-dependent translocase ABCB1 (Homo sapiens, UniProt P08183)	Active
COc1ccc(/C=C/C(=O)c2ccc(OC)c(OC)c2)cc1	ATP-dependent translocase ABCB1 (Homo sapiens, UniProt P08183)	Active

Sample COc1ccc(/C=C/C(=O)c2ccc3ccccc3c2O)cc1OC — what was its inhibition (INH)?
Active

Sample COc1ccc(C(=O)/C=C/c2ccc(OC)c(OC)c2)c(OC)c1 — what was its inhibition (INH)?
Active

Sample COc1cccc(/C=C/C(=O)c2ccc(O)cc2O)c1 — what was its inhibition (INH)?
Active

----------
# testedTarget: Broad substrate specificity ATP-binding cassette transporter ABCG2 (Homo sapiens)
# assayRemarks: Inhibition of human BCRP expressed in MDCK2 cells assessed as Hoechst 33342 accumulation preincubated for 30 mins by fluorimetry
# Assay type: cell-based, MDCK-II
# conditionDescription: read-out: IC50
pIC50: −log10 of the molar value.
endpointName: pIC50

Study these solved cases before continuing.
compound	pIC50
COc1ccc(/C=C/C(=O)c2ccc3ccccc3c2O)cc1OC	5.71
O=C(/C=C/c1ccc(Cl)c(Cl)c1)c1c(O)ccc2ccccc12	5.14
O=C(/C=C/c1ccccc1)c1c(O)ccc2ccccc12	5.59
COc1ccc(C(=O)/C=C/c2ccc(Cl)cc2)c(O)c1	4.97
O=C(/C=C/c1ccccc1Cl)c1ccc(O)cc1O	5.48

(I) COc1ccc(C(=O)/C=C/c2ccc(Cl)cc2)cc1OC
(II) COc1cc(O)c(C(=O)/C=C/c2ccccc2Cl)c(OC)c1
Hi! Which is lower in terms of pIC50, the first one I or the second one II ? Refer to your chosen entry by its label in the reply.
II
(II: 5.55, I: 5.76)
